Overview of recorded IC50 for various compounds
measurement-target: Lp-PLA2 in human plasma (Homo sapiens)
Construct: from tissue; host or cells: pooled human plasma
Sequence (Q13093 22-441): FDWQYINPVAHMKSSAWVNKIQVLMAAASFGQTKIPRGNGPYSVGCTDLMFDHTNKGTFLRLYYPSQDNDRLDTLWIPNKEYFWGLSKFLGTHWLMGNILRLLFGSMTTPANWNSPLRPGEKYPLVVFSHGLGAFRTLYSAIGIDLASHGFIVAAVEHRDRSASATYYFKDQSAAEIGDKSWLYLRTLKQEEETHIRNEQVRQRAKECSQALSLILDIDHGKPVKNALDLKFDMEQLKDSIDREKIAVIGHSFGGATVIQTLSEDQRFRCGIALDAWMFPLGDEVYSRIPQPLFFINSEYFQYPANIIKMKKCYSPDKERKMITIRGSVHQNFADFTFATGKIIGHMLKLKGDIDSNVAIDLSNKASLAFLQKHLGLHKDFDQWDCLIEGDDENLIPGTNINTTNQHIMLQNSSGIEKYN
method-description: (3a) Lp-PLA2 human plasma Thio-PAF assay
Type: biochemical
settings: (3a) Thio-PAF assay, pooled human plasma; Examples 1-265 and 413-430 were tested here; read-out: pIC50 in the Lp-PLA2 human plasma assay (converted)

{"columns": ["compound", "measurement-target", "IC50"],
 "data": [
  ["N#Cc1cc(COc2cc3n(c(=O)n2)CC2CCCCN32)ccc1Oc1ccc(C(F)(F)F)cc1 (centres unmarked)", "Lp-PLA2 in human plasma (Homo sapiens)", "≤ 100 nM"],
  ["O=c1nc(OCc2ccc(Oc3cnc(C(F)(F)F)nc3)c(F)c2)cc2n1CC1CCCCN21 (centres unmarked) [Example E43]", "Lp-PLA2 in human plasma (Homo sapiens)", "≤ 100 nM"],
  ["O=c1nc(OCc2cc(F)c(OC3(CCF)CC3)c(F)c2)cc2n1C[C@H]1CCCCN21", "Lp-PLA2 in human plasma (Homo sapiens)", "≤ 10000 nM"],
  ["O=c1nc(OCc2cc(F)c(OC3CCC(F)(F)CC3)c(F)c2)cc2n1C[C@@H]1CCCN21", "Lp-PLA2 in human plasma (Homo sapiens)", "≤ 10000 nM"],
  ["O=c1nc(OCc2cccc(F)c2F)cc2n1C[C@@H]1COCCN21 [Example E221]", "Lp-PLA2 in human plasma (Homo sapiens)", "≤ 100 nM"],
  ["N#Cc1cc(COc2cc3n(c(=O)n2)CC2CCCN32)ccc1Oc1cc(F)cc(F)c1 (centres unmarked)", "Lp-PLA2 in human plasma (Homo sapiens)", "≤ 100 nM"],
  ["N#Cc1cc(COc2cc3n(c(=O)n2)CC2COCCN32)ccc1Oc1ccc(F)c(C(F)(F)F)c1 (centres unmarked)", "Lp-PLA2 in human plasma (Homo sapiens)", "≤ 100 nM"],
  ["N#Cc1cc(COc2cc3n(c(=O)n2)C[C@@H]2CCCN32)ccc1Oc1cccc(F)c1", "Lp-PLA2 in human plasma (Homo sapiens)", "≤ 10000 nM"]
]}

====

Overview of recorded IC50 for various compounds
measurement-target: recombinant human Lp-PLA2 (Homo sapiens)
method-description: (1a) PED6 assay, recombinant human Lp-PLA2 (rhLp-PLA2)
Assay type: biochemical
settings: Examples 1-167 and 413-430 were tested here, one experiment or average of multiple experiments, read-out: rhLp-PLA2 (pIC50) (converted)
observed-property: IC50

{"columns": ["compound", "observed-property", "reported-value"],
 "data": [
  ["N#Cc1cc(COc2cc3n(c(=O)n2)CC2CCCN32)ccc1Oc1cccc(F)c1 (centres unmarked)", "IC50", "≤ 1 nM"],
  ["O=c1nc(OCc2cc(F)c(Oc3ccnc(C(F)(F)F)c3)c(F)c2)cc2n1CC1OCCCN21 (single isomer, unassigned) [Example E163]", "IC50", "≤ 100 nM"],
  ["CN1CCN2c3cc(OCc4cc(F)c(Oc5cnn(C)c5)c(F)c4)nc(=O)n3CC2C1 (centres unmarked)", "IC50", "≤ 100 nM"],
  ["Cn1cc(Oc2c(F)cc(COc3cc4n(c(=O)n3)C[C@H]3COCN43)cc2F)cn1", "IC50", "≤ 100 nM"],
  ["CN1c2cc(OCc3ccc(F)cc3F)nc(=O)n2CC12CCC2", "IC50", "≤ 100 nM"],
  ["O=c1nc(OCc2cc(F)c(OC3(CCF)CC3)c(F)c2)cc2n1C[C@H]1CCCN21", "IC50", "≤ 100 nM"],
  ["O=c1nc(OCc2ccc(Oc3cnc(C(F)(F)F)nc3)c(F)c2)cc2n1CC1CCCCN21 (centres unmarked) [Example E46]", "IC50", "≤ 1 nM"],
  ["Cc1cc(Oc2c(F)cc(COc3cc4n(c(=O)n3)C[C@@H]3COCCN43)cc2F)ccn1", "IC50", "≤ 100 nM"]
]}
